The reported measurements were obtained from patent US10913757B2.

test system: rat liver mitochondria (RLM); test: Mitochondrial transmembrane electric potential (ΔΨ) of RLM, safranine fluorescence; type: biochemical; conditions: glutamate/malate; 2.5 μM
Quantity kind: Maximum potential (ΔΨ in - mV)
Field: numeric (mV). Do not append units.

// below: answered compounds
* CS(=O)(=O)[O-].O=C(/C=C/c1cc(O)c(O)c(O)c1)NCCCCCC[P+](c1ccccc1)(c1ccccc1)c1ccccc1 [AntiOxCIN4] | 214.6
* CS(=O)(=O)[O-].O=C(/C=C/c1ccc(O)c(O)c1)NCCCCCC[P+](c1ccccc1)(c1ccccc1)c1ccccc1 [AntiOxCIN2] | 208.4
* CS(=O)(=O)[O-].O=C(/C=C/c1cc(O)c(O)c(O)c1)NCCCCCCCCCC[P+](c1ccccc1)(c1ccccc1)c1ccccc1 [AntiOxCIN7] | 251.8
* CS(=O)(=O)[O-].O=C(/C=C/c1ccc(O)c(O)c1)NCCCCCCCC[P+](c1ccccc1)(c1ccccc1)c1ccccc1 [AntiOxCIN3] | 238.0

Task item: Requested read-out Maximum potential (ΔΨ in - mV), target or system rat liver mitochondria (RLM), entry CS(=O)(=O)[O-].O=C(/C=C/c1cc(O)c(O)c(O)c1)NCCCCCCCC[P+](c1ccccc1)(c1ccccc1)c1ccccc1 [AntiOxCIN5]
Reply: 249.8

Task item: Notebook: pull reported Maximum potential (ΔΨ in - mV) for rat liver mitochondria (RLM), entry CS(=O)(=O)[O-].O=C(/C=C/c1ccc(O)c(O)c1)NCCCCCCCCCC[P+](c1ccccc1)(c1ccccc1)c1ccccc1 [AntiOxCIN6]
Reply: 237.9

Task item: Item: COC1=C(OC)C(=O)C(CCCCCCCCCC[P+](c2ccccc2)(c2ccccc2)c2ccccc2)=C(C)C1=O.CS(=O)(=O)[O-] [MitoQ, reference compound] Test system: rat liver mitochondria (RLM) Read-out: Maximum potential (ΔΨ in - mV) Value: ?
Reply: 195.7

* * *

Listing: ADP/O of selected molecules
system: rat liver mitochondria (RLM); test: Mitochondrial respiration of isolated RLM (Clark-type oxygen electrode); assay type: biochemical; conditions: glutamate/malate; 5 μM

Some molecules with known ADP/O results, for comparison:
- CS(=O)(=O)[O-].O=C(/C=C/c1cc(O)c(O)c(O)c1)NCCCCCC[P+](c1ccccc1)(c1ccccc1)c1ccccc1 [AntiOxCIN4]: 2.2 ± 0.1
- COC1=C(OC)C(=O)C(CCCCCCCCCC[P+](c2ccccc2)(c2ccccc2)c2ccccc2)=C(C)C1=O.CS(=O)(=O)[O-] [MitoQ, reference compound]: 1.9 ± 0.1
- CS(=O)(=O)[O-].O=C(/C=C/c1cc(O)c(O)c(O)c1)NCCCCCCCC[P+](c1ccccc1)(c1ccccc1)c1ccccc1 [AntiOxCIN5]: 2.5 ± 0.1
- CS(=O)(=O)[O-].O=C(/C=C/c1cc(O)c(O)c(O)c1)NCCCCCCCCCC[P+](c1ccccc1)(c1ccccc1)c1ccccc1 [AntiOxCIN7]: 2.4 ± 0.1

Task item: What does the data say about its ADP/O? Entry: CS(=O)(=O)[O-].O=C(/C=C/c1ccc(O)c(O)c1)NCCCCCCCCCC[P+](c1ccccc1)(c1ccccc1)c1ccccc1 [AntiOxCIN6]
Reply: 2.5 ± 0.2

Task item: I have this molecule here, CS(=O)(=O)[O-].O=C(/C=C/c1ccc(O)c(O)c1)NCCCCCC[P+](c1ccccc1)(c1ccccc1)c1ccccc1 [AntiOxCIN2] , and I need its recorded ADP/O.
Reply: 2.2 ± 0.1

Task item: Report ADP/O for CS(=O)(=O)[O-].O=C(/C=C/c1ccc(O)c(O)c1)NCCCCCCCC[P+](c1ccccc1)(c1ccccc1)c1ccccc1 [AntiOxCIN3] please.
Reply: 2.7 ± 0.2

* * *

test system: rat liver mitochondria (RLM); assay: Mitochondrial respiration of isolated RLM (Clark-type oxygen electrode); format: biochemical; conditions: succinate; 2.5 μM
Quantity kind: ADP/O
A bare number is all that is needed in reply.

Solved entries:
• CS(=O)(=O)[O-].O=C(/C=C/c1ccc(O)c(O)c1)NCCCCCC[P+](c1ccccc1)(c1ccccc1)c1ccccc1 [AntiOxCIN2] = 1.4
• CS(=O)(=O)[O-].O=C(/C=C/c1ccc(O)c(O)c1)NCCCCCCCC[P+](c1ccccc1)(c1ccccc1)c1ccccc1 [AntiOxCIN3] = 1.6
• COC1=C(OC)C(=O)C(CCCCCCCCCC[P+](c2ccccc2)(c2ccccc2)c2ccccc2)=C(C)C1=O.CS(=O)(=O)[O-] [MitoQ, reference compound] = 1.3
• CS(=O)(=O)[O-].O=C(/C=C/c1ccc(O)c(O)c1)NCCCCCCCCCC[P+](c1ccccc1)(c1ccccc1)c1ccccc1 [AntiOxCIN6] = 1.5
• CS(=O)(=O)[O-].O=C(/C=C/c1cc(O)c(O)c(O)c1)NCCCCCCCC[P+](c1ccccc1)(c1ccccc1)c1ccccc1 [AntiOxCIN5] = 1.6

Task item: What does the data say about its ADP/O? Entry: CS(=O)(=O)[O-].O=C(/C=C/c1cc(O)c(O)c(O)c1)NCCCCCC[P+](c1ccccc1)(c1ccccc1)c1ccccc1 [AntiOxCIN4]
Reply: 1.4

Task item: I'd like to know its ADP/O. The compound in question is CS(=O)(=O)[O-].O=C(/C=C/c1cc(O)c(O)c(O)c1)NCCCCCCCCCC[P+](c1ccccc1)(c1ccccc1)c1ccccc1 [AntiOxCIN7]
Reply: 1.8

* * *

Listing of recorded Repolarization Potential (ΔΨ in - mV) by entry.
system: rat liver mitochondria (RLM); assay: Mitochondrial transmembrane electric potential (ΔΨ) of RLM, safranine fluorescence; format: biochemical; conditions: glutamate/malate; 10 μM
Hi! Could you send only the number? It should be in mV, unit omitted.

Known Repolarization Potential (ΔΨ in - mV) results, listed for orientation:
• CS(=O)(=O)[O-].O=C(/C=C/c1ccc(O)c(O)c1)NCCCCCCCC[P+](c1ccccc1)(c1ccccc1)c1ccccc1 [AntiOxCIN3] = 231.5
• CS(=O)(=O)[O-].O=C(/C=C/c1cc(O)c(O)c(O)c1)NCCCCCCCC[P+](c1ccccc1)(c1ccccc1)c1ccccc1 [AntiOxCIN5] = 199.9
• CS(=O)(=O)[O-].O=C(/C=C/c1ccc(O)c(O)c1)NCCCCCC[P+](c1ccccc1)(c1ccccc1)c1ccccc1 [AntiOxCIN2] = 202.0
• CS(=O)(=O)[O-].O=C(/C=C/c1cc(O)c(O)c(O)c1)NCCCCCCCCCC[P+](c1ccccc1)(c1ccccc1)c1ccccc1 [AntiOxCIN7] = 212.6
• CS(=O)(=O)[O-].O=C(/C=C/c1ccc(O)c(O)c1)NCCCCCCCCCC[P+](c1ccccc1)(c1ccccc1)c1ccccc1 [AntiOxCIN6] = 185.3

Task item: Item CS(=O)(=O)[O-].O=C(/C=C/c1cc(O)c(O)c(O)c1)NCCCCCC[P+](c1ccccc1)(c1ccccc1)c1ccccc1 [AntiOxCIN4] with rat liver mitochondria (RLM) - Repolarization Potential (ΔΨ in - mV)?
Reply: 207.7

* * *

system: rat liver mitochondria (RLM); assay: Mitochondrial respiration of isolated RLM (Clark-type oxygen electrode); type: biochemical; conditions: succinate; 10 μM
Quantity kind: ADP/O
The reply should be a number, written without any unit.

Here are 5 compounds together with their reported answers.
• CS(=O)(=O)[O-].O=C(/C=C/c1ccc(O)c(O)c1)NCCCCCCCC[P+](c1ccccc1)(c1ccccc1)c1ccccc1 [AntiOxCIN3] = 1.6
• CS(=O)(=O)[O-].O=C(/C=C/c1ccc(O)c(O)c1)NCCCCCC[P+](c1ccccc1)(c1ccccc1)c1ccccc1 [AntiOxCIN2] = 1.1
• CS(=O)(=O)[O-].O=C(/C=C/c1ccc(O)c(O)c1)NCCCCCCCCCC[P+](c1ccccc1)(c1ccccc1)c1ccccc1 [AntiOxCIN6] = 1.6
• CS(=O)(=O)[O-].O=C(/C=C/c1cc(O)c(O)c(O)c1)NCCCCCC[P+](c1ccccc1)(c1ccccc1)c1ccccc1 [AntiOxCIN4] = 1.3
• CS(=O)(=O)[O-].O=C(/C=C/c1cc(O)c(O)c(O)c1)NCCCCCCCC[P+](c1ccccc1)(c1ccccc1)c1ccccc1 [AntiOxCIN5] = 1.6

We next turn to a different compound, shown below.
Task item: What value of ADP/O has been recorded for this entry: CS(=O)(=O)[O-].O=C(/C=C/c1cc(O)c(O)c(O)c1)NCCCCCCCCCC[P+](c1ccccc1)(c1ccccc1)c1ccccc1 [AntiOxCIN7]
Reply: 1.7

* * *

tested on: rat liver mitochondria (RLM); test: Mitochondrial transmembrane electric potential (ΔΨ) of RLM, safranine fluorescence; assay type: biochemical; conditions: glutamate/malate; 5 μM
Quantity kind: Lag Phase (s)
All answers are understood in s, so give the number only.

Here are 3 molecules together with their reported answers.
* CS(=O)(=O)[O-].O=C(/C=C/c1cc(O)c(O)c(O)c1)NCCCCCCCCCC[P+](c1ccccc1)(c1ccccc1)c1ccccc1 [AntiOxCIN7] | 71.0
* CS(=O)(=O)[O-].O=C(/C=C/c1ccc(O)c(O)c1)NCCCCCC[P+](c1ccccc1)(c1ccccc1)c1ccccc1 [AntiOxCIN2] | 79.5
* CS(=O)(=O)[O-].O=C(/C=C/c1ccc(O)c(O)c1)NCCCCCCCC[P+](c1ccccc1)(c1ccccc1)c1ccccc1 [AntiOxCIN3] | 68.2

Task item: Given the molecule CS(=O)(=O)[O-].O=C(/C=C/c1cc(O)c(O)c(O)c1)NCCCCCCCC[P+](c1ccccc1)(c1ccccc1)c1ccccc1 [AntiOxCIN5] , what is its reported Lag Phase?
Reply: 69.8

Task item: State the recorded Lag Phase for this entry: CS(=O)(=O)[O-].O=C(/C=C/c1ccc(O)c(O)c1)NCCCCCCCCCC[P+](c1ccccc1)(c1ccccc1)c1ccccc1 [AntiOxCIN6]
Reply: 75.2

Task item: # lookup: Lag Phase of CS(=O)(=O)[O-].O=C(/C=C/c1cc(O)c(O)c(O)c1)NCCCCCC[P+](c1ccccc1)(c1ccccc1)c1ccccc1 [AntiOxCIN4]
Reply: 81.7

Task item: // query Lag Phase value for entry COC1=C(OC)C(=O)C(CCCCCCCCCC[P+](c2ccccc2)(c2ccccc2)c2ccccc2)=C(C)C1=O.CS(=O)(=O)[O-] [MitoQ, reference compound]
Reply: 84.5
